# System: 242566-281-R-J2-PDC complex spheroid viability
# test-name: Anticancer human tumor 242566-281-R-J2-PDC patient-derived pancreatic carcinoma cell line growth inhibition [RAS]
# conditions: second compound 0.0949 µM; first compound 0.1 µM; stronger effect = lower value
viability, T/C reference

compound | result-unit | viability, T/C
CCN1CCN(Cc2ccc(Nc3ncc(F)c(-c4cc(F)c5nc(C)n(C(C)C)c5c4)n3)nc2)CC1 + CCn1c(-c2cc(N3CCN(C)CC3)cnc2C(C)OC)c2c3cc(ccc31)-c1csc(n1)CC(NC(=O)C1CC1C)C(=O)N1CCCC(N1)C(=O)OCC(C)(C)C2 | % | 22
Cc1nc(N2CCC3(CC2)COC(C)C3N)c(CO)nc1Sc1ccnc(N)c1Cl (centres undefined) + CCn1c(-c2cccnc2C(C)OC)c2c3cc(ccc31)N1CCOC(CC(NC(=O)C(C(C)C)N(C)C(=O)C3(F)CCN(C(=O)C#CC(C)(C)N(C)C)CC3)C(=O)N3CCCC(N3)C(=O)OCC(C)(C)C2)C1 | % | 77.3
C=CC(=O)Nc1cc(Nc2nccc(-c3cn(C)c4ccccc34)n2)c(OC)cc1N(C)CCN(C)C + CCn1c(-c2cccnc2C(C)OC)c2c3cc(ccc31)N1CCOC(CC(NC(=O)C(C(C)C)N(C)C(=O)C3(F)CCN(C(=O)C#CC(C)(C)N(C)C)CC3)C(=O)N3CCCC(N3)C(=O)OCC(C)(C)C2)C1 | % | 83.5
Nc1ccn(C2OC(CO)C(O)C2(F)F)c(=O)n1 (centres undefined) + CCn1c(-c2cccnc2C(C)OC)c2c3cc(ccc31)N1CCOC(CC(NC(=O)C(C(C)C)N(C)C(=O)C3(F)CCN(C(=O)C#CC(C)(C)N(C)C)CC3)C(=O)N3CCCC(N3)C(=O)OCC(C)(C)C2)C1 | % | 49.2

* * *

# Test system: 242566-281-R-J2-PDC complex spheroid viability
# test-name: Anticancer human tumor 242566-281-R-J2-PDC cell line growth inhibition [RAS];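 further: spheroids exposed to compound for 7 days before readout; 100% = DMSO vehicle control wells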
# conditions: second compound 0.1 µM; first compound 0.1 µM; stronger effect = lower value
Classes by viability, T/C: zone 1 = under 50%, zone 2 = from 50% up to 90%, zone 3 = 90% and over

compound | assigned-class
C[C@@H](NC(=O)c1ncnc(N)c1Cl)c1ncc(C(=O)Nc2cc(C(F)(F)F)c(Cl)cn2)s1 + C=CC(=O)N1CCN(c2nc(OCC3CCCN3C)nc3c(F)c(-c4nc(N)cc(C)c4C(F)(F)F)c(Cl)cc23)C(C)C1 | zone 3
C[C@@H](NC(=O)c1ncnc(N)c1Cl)c1ncc(C(=O)Nc2cc(C(F)(F)F)c(Cl)cn2)s1 + C#Cc1c(F)ccc2cc(O)cc(-c3ncc4c(N5CC6CCC(C5)N6)nc(OCC56CCCN5CC(F)C6)nc4c3F)c12 | zone 3
O=C(c1ccc(F)c(F)c1Nc1ccc(I)cc1F)N1CC(O)([C@@H]2CCCCN2)C1 + C#Cc1c(F)ccc2cc(O)cc(-c3ncc4c(N5CC6CCC(C5)N6)nc(OCC56CCCN5CC(F)C6)nc4c3F)c12 | zone 1
C=CC(=O)Nc1cc(Nc2nccc(-c3cn(C)c4ccccc34)n2)c(OC)cc1N(C)CCN(C)C + C#Cc1c(F)ccc2cc(O)cc(-c3ncc4c(N5CC6CCC(C5)N6)nc(OCC56CCCN5CC(F)C6)nc4c3F)c12 | zone 1
CC(C)n1nc(-c2ccc3oc(N)nc3c2)c2c(N)ncnc21 + C=CC(=O)N1CCN(c2nc(OCC3CCCN3C)nc3c(F)c(-c4nc(N)cc(C)c4C(F)(F)F)c(Cl)cc23)C(C)C1 | zone 2
C=CC(=O)N1CCN(c2nc(OCC3CCCN3C)nc3c(F)c(-c4nc(N)cc(C)c4C(F)(F)F)c(Cl)cc23)C(C)C1 (stereo not drawn) + C#Cc1c(F)ccc2cc(O)cc(-c3ncc4c(N5CC6CCC(C5)N6)nc(OCC56CCCN5CC(F)C6)nc4c3F)c12 | zone 2
CC(Nc1ccc2c(c1)OCCn1cc(N3C(=O)OCC3C(F)F)nc1-2)C(N)=O (stereo not drawn) + C#Cc1c(F)ccc2cc(O)cc(-c3ncc4c(N5CC6CCC(C5)N6)nc(OCC56CCCN5CC(F)C6)nc4c3F)c12 | zone 2
CC(=O)OC12COC1CC(O)C1(C)C(=O)C(O)C3=C(C)C(OC(=O)C(O)C(NC(=O)OC(C)(C)C)c4ccccc4)CC(O)(C(OC(=O)c4ccccc4)C21)C3(C)C (stereo not drawn) + C#Cc1c(F)ccc2cc(O)cc(-c3ncc4c(N5CC6CCC(C5)N6)nc(OCC56CCCN5CC(F)C6)nc4c3F)c12 | zone 2
O=C(c1ccc(F)c(F)c1Nc1ccc(I)cc1F)N1CC(O)([C@@H]2CCCCN2)C1 + C=CC(=O)N1CCN(c2nc(OCC3CCCN3C)nc3c(F)c(-c4nc(N)cc(C)c4C(F)(F)F)c(Cl)cc23)C(C)C1 | zone 2
NC1c2ccccc2OC12CCN(c1cnc3c(N4CCCc5ncccc54)n[nH]c3n1)CC2 (stereo not drawn) + C=CC(=O)N1CCN(c2nc(OCC3CCCN3C)nc3c(F)c(-c4nc(N)cc(C)c4C(F)(F)F)c(Cl)cc23)C(C)C1 | zone 3
C=CC(=O)Nc1cc(Nc2nccc(-c3cn(C)c4ccccc34)n2)c(OC)cc1N(C)CCN(C)C + C=CC(=O)N1CCN(c2nc(OCC3CCCN3C)nc3c(F)c(-c4nc(N)cc(C)c4C(F)(F)F)c(Cl)cc23)C(C)C1 | zone 3
CC1(O)CCCC1n1c(=O)c(C(F)F)cc2cnc(NC3CCN(S(C)(=O)=O)CC3)nc21 (stereo not drawn) + C#Cc1c(F)ccc2cc(O)cc(-c3ncc4c(N5CC6CCC(C5)N6)nc(OCC56CCCN5CC(F)C6)nc4c3F)c12 | zone 2
CC(C)NCC(C(=O)N1CCN(c2ncnc3c2C(C)CC3O)CC1)c1ccc(Cl)cc1 (stereo not drawn) + C#Cc1c(F)ccc2cc(O)cc(-c3ncc4c(N5CC6CCC(C5)N6)nc(OCC56CCCN5CC(F)C6)nc4c3F)c12 | zone 2

* * *

# Test system: 242566-281-R-J2-PDC complex spheroid viability
# test-name: Anticancer human tumor 242566-281-R-J2-PDC cell line growth inhibition [RAS];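 further: spheroids exposed to compound for 7 days before readout; 100% = DMSO vehicle control wells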
# conditions: second compound 0.1 µM; first compound 0.00316 µM; stronger effect = lower value
Reported viability, T/C values follow for various compounds
assay-metric: viability, T/C (%)

compound | result-unit | result-number
C=CC(=O)Nc1cc(Nc2nccc(-c3cn(C)c4ccccc34)n2)c(OC)cc1N(C)CCN(C)C + C#Cc1c(F)ccc2cc(O)cc(-c3ncc4c(N5CC6CCC(C5)N6)nc(OCC56CCCN5CC(F)C6)nc4c3F)c12 | % | 80.3
CC(C)n1nc(-c2ccc3oc(N)nc3c2)c2c(N)ncnc21 + C=CC(=O)N1CCN(c2nc(OCC3CCCN3C)nc3c(F)c(-c4nc(N)cc(C)c4C(F)(F)F)c(Cl)cc23)C(C)C1 | % | 89.9
CCN1CCN(Cc2ccc(Nc3ncc(F)c(-c4cc(F)c5nc(C)n(C(C)C)c5c4)n3)nc2)CC1 + C=CC(=O)N1CCN(c2nc(OCC3CCCN3C)nc3c(F)c(-c4nc(N)cc(C)c4C(F)(F)F)c(Cl)cc23)C(C)C1 | % | 115
C=CC(=O)Nc1cc(Nc2nccc(-c3cn(C)c4ccccc34)n2)c(OC)cc1N(C)CCN(C)C + C=CC(=O)N1CCN(c2nc(OCC3CCCN3C)nc3c(F)c(-c4nc(N)cc(C)c4C(F)(F)F)c(Cl)cc23)C(C)C1 | % | 105
C=CC(=O)N1CCN(c2nc(OCC3CCCN3C)nc3c(F)c(-c4nc(N)cc(C)c4C(F)(F)F)c(Cl)cc23)C(C)C1 (stereo not drawn) + C#Cc1c(F)ccc2cc(O)cc(-c3ncc4c(N5CC6CCC(C5)N6)nc(OCC56CCCN5CC(F)C6)nc4c3F)c12 | % | 83.9
CCN1CCN(Cc2ccc(Nc3ncc(F)c(-c4cc(F)c5nc(C)n(C(C)C)c5c4)n3)nc2)CC1 + C#Cc1c(F)ccc2cc(O)cc(-c3ncc4c(N5CC6CCC(C5)N6)nc(OCC56CCCN5CC(F)C6)nc4c3F)c12 | % | 95
Nc1ccn(C2OC(CO)C(O)C2(F)F)c(=O)n1 (stereo not drawn) + C=CC(=O)N1CCN(c2nc(OCC3CCCN3C)nc3c(F)c(-c4nc(N)cc(C)c4C(F)(F)F)c(Cl)cc23)C(C)C1 | % | 134
O=C(c1ccc(F)c(F)c1Nc1ccc(I)cc1F)N1CC(O)([C@@H]2CCCCN2)C1 + C=CC(=O)N1CCN(c2nc(OCC3CCCN3C)nc3c(F)c(-c4nc(N)cc(C)c4C(F)(F)F)c(Cl)cc23)C(C)C1 | % | 103

* * *

# Tested on: 242566-281-R-J2-PDC complex spheroid viability
# test-name: Anticancer human tumor 242566-281-R-J2-PDC cell line growth inhibition [RAS];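 further: spheroids exposed to compound for 7 days before readout; 100% = DMSO vehicle control wells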
# conditions: second compound 0.003 µM; first compound 10 µM; stronger effect = lower value

molecule | target-or-system | viability, T/C
CCC(CC)c1cc(NC2CCC(N)C2)n2nccc2n1 (centres undefined) + CCn1c(-c2cc(N3CCN(C)CC3)cnc2C(C)OC)c2c3cc(ccc31)-c1csc(n1)CC(NC(=O)C1CC1C)C(=O)N1CCCC(N1)C(=O)OCC(C)(C)C2 | 242566-281-R-J2-PDC complex spheroid viability | 1.04%
CC(C)NCC(C(=O)N1CCN(c2ncnc3c2C(C)CC3O)CC1)c1ccc(Cl)cc1 (centres undefined) + CCn1c(-c2cc(N3CCN(C)CC3)cnc2C(C)OC)c2c3cc(ccc31)-c1csc(n1)CC(NC(=O)C1CC1C)C(=O)N1CCCC(N1)C(=O)OCC(C)(C)C2 | 242566-281-R-J2-PDC complex spheroid viability | 28.4%
CC(=O)OC12COC1CC(O)C1(C)C(=O)C(O)C3=C(C)C(OC(=O)C(O)C(NC(=O)OC(C)(C)C)c4ccccc4)CC(O)(C(OC(=O)c4ccccc4)C21)C3(C)C (centres undefined) + CCn1c(-c2cccnc2C(C)OC)c2c3cc(ccc31)N1CCOC(CC(NC(=O)C(C(C)C)N(C)C(=O)C3(F)CCN(C(=O)C#CC(C)(C)N(C)C)CC3)C(=O)N3CCCC(N3)C(=O)OCC(C)(C)C2)C1 | 242566-281-R-J2-PDC complex spheroid viability | 33.9%
CC(C)NCC(C(=O)N1CCN(c2ncnc3c2C(C)CC3O)CC1)c1ccc(Cl)cc1 (centres undefined) + CCn1c(-c2cccnc2C(C)OC)c2c3cc(ccc31)N1CCOC(CC(NC(=O)C(C(C)C)N(C)C(=O)C3(F)CCN(C(=O)C#CC(C)(C)N(C)C)CC3)C(=O)N3CCCC(N3)C(=O)OCC(C)(C)C2)C1 | 242566-281-R-J2-PDC complex spheroid viability | 55.5%
